The following binders are shown together with reported IC50, EGF-stimulated EGFR phosphorylation, H292 cells, ELISA values.
# experimental-target: EGFR on the surface of human tumour cells (A431, H292) (human, UniProt P00533 25-1210)
# assay-name: cell-based or functional assay
The answer is to be given in nM; state only the numeric part.

binder | measured-value
E105-GS10-I1 pegylated (designed binder, chain 1 pos 221: Cys carrying a maleimide-linked 40 kDa branched PEG, written C, lower row of the two named E105-GS10-I1 pegylated) MGVSDVPRDLEVVAATPTSLLISWDAPTSRYQYYRITYGETGGNSPVQEFTVPGGLSTATISGLKPGVDYTITVYAVTDYKPHADGPHTYHESPISINYRTEIDKGSGSGSGSGSGSGSGSGSGSVSDVPRDLEVVAATPTSLLISWSARLKVARYYRITYGETGGNSPVQEFTVPKNVYTATISGLKPGVDYTITVYAVTRFRDYQPISINYRTEIDKPCQHHHHHH | 16

E90-GS10-I1 pegylated (designed binder, Cys of the C-terminal Cys tail conjugated to 40 kDa branched PEG) E/I tandem 10Fn3 chain: MGVSDVPRDLEVVAATPTSLLISWYWEGLPYQYYRITYGETGGNSPVQEFTVPRDVNTATISGLKPGVDYTITVYAVTDWYNPDTHEYIYHTIPISINYRTEIDKGSGSGSGSGSGSGSGSGSGSVSDVPRDLEVVAATPTSLLISWSARLKVARYYRITYGETGGNSPVQEFTVPKNVYTATISGLKPGVDYTITVYAVTRFRDYQPISINYRTEIDKPCQHHHHHH has a reported IC50, EGF-stimulated EGFR phosphorylation, H292 cells, ELISA of 10

I1-GS10-E4 pegylated, His-tagged (designed binder, 40 kDa branched PEG on the Cys of the C-terminal Cys tail) MGVSDVPRDLEVVAATPTSLLISWSARLKVARYYRITYGETGGNSPVQEFTVPKNVYTATISGLKPGVDYTITVYAVTRFRDYQPISINYRTEIDKGSGSGSGSGSGSGSGSGSGSVSDVPRDLEVVAATPTSLLISWHERDGSRQYYRITYGETGGNSPVQEFTVPGGVRTATISGLKPGVDYTITVYAVTDYFNPTTHEYIYQTTPISINYRTEIDKPCQHHHHHH has a reported IC50, EGF-stimulated EGFR phosphorylation, H292 cells, ELISA of 4

meta.source: patent US20180037631A1
